The origin of these recorded values is ChEMBL document CHEMBL1955714.

- assay.text: Inhibition of rat intestine alpha-glucosidase using maltose as substrate after 10 mins by spectrometric analysis
quantity.kind: IC50 (µg/mL)

COc1ccc2cc(CCC(=O)CC(Nc3ccc(S(N)(=O)=O)cc3)c3ccc(Br)cc3)ccc2c1 (centres undefined) | 2.92
COc1ccc2cc(CCC(=O)CC(Nc3ccc(S(N)(=O)=O)cc3)c3ccc(O)cc3)ccc2c1 (centres undefined) | 4.14
COc1ccc2cc(CCC(=O)CC(Nc3ccc(S(N)(=O)=O)cc3)c3ccc(Cl)cc3)ccc2c1 (centres undefined) | 4.07
COc1ccc2cc(CCC(=O)CC(Nc3ccc(S(=O)(=O)Nc4cc(C)on4)cc3)c3cccc(C)c3)ccc2c1 (centres undefined) | 3.24

----------
- system.under.test: Peroxisome proliferator-activated receptor (Homo sapiens) (UniProt P37231+Q07869+Q03181)
- assay.text: Activation of PPAR in human HepG2 cells at 10 ug/ml after 24 hrs by luciferase reporter gene assay relative to rosiglitazone
- Format: cell-based
quantity.kind: Activity (%)

1 = COc1ccc2cc(CCC(=O)CC(Nc3ccc(S(N)(=O)=O)cc3)c3ccc(O)cc3)ccc2c1 (stereo not given)
2 = COc1ccc2cc(CCC(=O)CC(Nc3cc(C)on3)c3ccc(Br)cc3)ccc2c1 (stereo not given)
Which has the higher Activity, 1 or 2 ? // caller expects the label of the chosen entry 1

A = COc1ccc2cc(CCC(=O)CC(Nc3ccc(S(N)(=O)=O)cc3)c3ccc(Cl)cc3)ccc2c1 (stereo not given)
B = COc1ccc2cc(CCC(=O)CC(Nc3cc(C)on3)c3cccc(Cl)c3)ccc2c1 (stereo not given)
Returns: the argument ( A or B ) having the larger Activity. I would appreciate it if you answered with the label of your choice. A
(A: 71.9%, B: 4.86%)

a = COc1ccc2cc(CCC(=O)CC(Nc3cc(C)on3)c3ccc(C)cc3)ccc2c1 (stereo not given)
b = COc1ccc2cc(CCC(=O)CC(Nc3ccc(S(N)(=O)=O)cc3)c3ccc4cc(OC)ccc4c3)ccc2c1 (stereo not given)
For the two items a and b , which reports the higher Activity value? Lab note: record the label of whichever item you select. b
(b: 19.1%, a: 11.5%)

----------
- system.under.test: Peroxisome proliferator-activated receptor (Homo sapiens) (UniProt P37231+Q07869+Q03181)
- assay.text: Activation of PPAR in human HepG2 cells at 10 ug/ml after 24 hrs by luciferase reporter gene assay relative to rosiglitazone
- Assay type: cell-based
quantity.kind: Activity (%)

Below: 5 compounds and their reported Activity.
COc1cccc(C(CC(=O)CCc2ccc3cc(OC)ccc3c2)Nc2ccc(S(=O)(=O)Nc3cc(C)on3)cc2)c1 (centres undefined) | 78.2
COc1cccc(C(CC(=O)CCc2ccc3cc(OC)ccc3c2)Nc2ccc(S(N)(=O)=O)cc2)c1 (centres undefined) | 60.3
COc1ccc2cc(CCC(=O)CC(Nc3ccc(S(=O)(=O)Nc4cc(C)on4)cc3)c3cccc(C)c3)ccc2c1 (centres undefined) | 68.4
COc1ccc2cc(CCC(=O)CC(Nc3cc(C)on3)c3cccc(C)c3)ccc2c1 (centres undefined) | 12.7
COc1ccc2cc(CCC(=O)CC(Nc3ccc(S(=O)(=O)Nc4cc(C)on4)cc3)c3ccc(Cl)cc3)ccc2c1 (centres undefined) | 3.92

I = COc1ccc2cc(CCC(=O)CC(Nc3ccc(S(N)(=O)=O)cc3)c3ccc(Cl)c(Cl)c3)ccc2c1 (centres undefined)
II = COc1ccc2cc(CCC(=O)CC(Nc3cc(C)on3)c3ccc([N+](=O)[O-])cc3)ccc2c1 (centres undefined)
III = COc1ccc2cc(CCC(=O)CC(Nc3cc(C)on3)c3ccc4c(c3)OCO4)ccc2c1 (centres undefined)
Rank items: key Activity, increasing. Give the labels in the order requested. II, III, I

----------
- Species: Rattus norvegicus
- assay.text: Inhibition of rat intestine alpha-glucosidase using maltose as substrate after 10 mins by spectrometric analysis relative to acarbose
- Parameters: concentration or dose not given beside the values
quantity.kind: inhibition (%)

# example entries with known answers
COc1ccc2cc(CCC(=O)CC(Nc3ccc(S(=O)(=O)Nc4cc(C)on4)cc3)c3ccc(Cl)cc3)ccc2c1 (configuration not stated) | 44.2
COc1ccc2cc(CCC(=O)CC(Nc3ccc(S(N)(=O)=O)cc3)c3cccc([N+](=O)[O-])c3)ccc2c1 (configuration not stated) | 32.7
COc1ccc2cc(CCC(=O)CC(Nc3ccc(S(=O)(=O)Nc4cc(C)on4)cc3)c3cccc([N+](=O)[O-])c3)ccc2c1 (configuration not stated) | 41.6
COc1ccc2cc(CCC(=O)CC(Nc3cc(C)on3)c3ccc(Br)cc3)ccc2c1 (configuration not stated) | 1.42
COc1cccc(C(CC(=O)CCc2ccc3cc(OC)ccc3c2)Nc2cc(C)on2)c1 (configuration not stated) | 15.8
COc1ccc2cc(CCC(=O)CC(Nc3ccc(S(N)(=O)=O)cc3)c3ccccc3)ccc2c1 (configuration not stated) | 41.7

P = COc1ccc2cc(CCC(=O)CC(Nc3cc(C)on3)c3ccccc3)ccc2c1 (configuration not stated)
Q = COc1ccc2cc(CCC(=O)CC(Nc3ccc(S(=O)(=O)Nc4cc(C)on4)cc3)c3ccccc3)ccc2c1 (configuration not stated)
R = CCCCOc1ccc(C(CC(=O)CCc2ccc3cc(OC)ccc3c2)Nc2ccc(S(N)(=O)=O)cc2)cc1 (configuration not stated)
Please rank these compounds by inhibition in descending order. Note for the reader: the ranking is given by listing the labels in the order requested. Q, P, R

P = COc1ccc2cc(CCC(=O)CC(Nc3ccc(S(N)(=O)=O)cc3)c3ccc(Cl)cc3)ccc2c1 (configuration not stated)
Q = COc1ccc(C(CC(=O)CCc2ccc3cc(OC)ccc3c2)Nc2cc(C)on2)cc1 (configuration not stated)
R = COc1ccc2cc(CCC(=O)CC(Nc3ccc(S(=O)(=O)Nc4cc(C)on4)cc3)c3ccc(Cl)cc3Cl)ccc2c1 (configuration not stated)
Order field: inhibition | Direction: descending (largest first) Order the labels as requested and give them as your answer. P, R, Q

A = COc1ccc2cc(CCC(=O)CC(Nc3cc(C)on3)c3cccc(C)c3)ccc2c1 (configuration not stated)
B = COc1ccc2cc(CCC(=O)CC(Nc3cc(C)on3)c3ccc(Cl)c(Cl)c3)ccc2c1 (configuration not stated)
Among A and B , which shows a numerically higher inhibition result? Pick one and reply with its label. B

P = COc1ccc2cc(CCC(=O)CC(Nc3ccc(S(=O)(=O)Nc4cc(C)on4)cc3)c3cccc(C)c3)ccc2c1 (configuration not stated)
Q = COc1ccc2cc(CCC(=O)CC(Nc3ccc(S(=O)(=O)Nc4cc(C)on4)cc3)c3cccc(Cl)c3)ccc2c1 (configuration not stated)
Returns: the label, P or Q , whose recorded inhibition is the lower number. Response format: the label of the selected entry. Q

I = COc1ccc2cc(CCC(=O)CC(Nc3ccc(S(=O)(=O)Nc4cc(C)on4)cc3)c3ccc(Cl)c(Cl)c3)ccc2c1 (configuration not stated)
II = CCCCOc1ccc(C(CC(=O)CCc2ccc3cc(OC)ccc3c2)Nc2cc(C)on2)cc1 (configuration not stated)
III = COc1ccc2cc(CCC(=O)CC(Nc3ccc(S(=O)(=O)Nc4cc(C)on4)cc3)c3ccc4c(c3)OCO4)ccc2c1 (configuration not stated)
IV = COc1ccc2cc(CCC(=O)CC(Nc3ccc(S(N)(=O)=O)cc3)c3ccc4cc(OC)ccc4c3)ccc2c1 (configuration not stated)
V = COc1ccc2cc(CCC(=O)CC(Nc3cc(C)on3)c3ccc4c(c3)OCO4)ccc2c1 (configuration not stated)
Please put the entries in order of rising inhibition. Field: ranking. Enter the labels in the order requested. V, IV, II, III, I
(V: 0.35%, IV: 6.39%, II: 11%, III: 19.2%, I: 53.7%)

1 = CCCCOc1ccc(C(CC(=O)CCc2ccc3cc(OC)ccc3c2)Nc2ccc(S(=O)(=O)Nc3cc(C)on3)cc2)cc1 (configuration not stated)
2 = COc1ccc2cc(CCC(=O)CC(Nc3cc(C)on3)c3ccc(O)cc3)ccc2c1 (configuration not stated)
Could you point out whether the larger inhibition belongs to 1 or to 2 ? # respond with the chosen item's label 2

P = COc1ccc2cc(CCC(=O)CC(Nc3ccc(S(N)(=O)=O)cc3)c3cccc(C)c3)ccc2c1 (configuration not stated)
Q = COc1ccc2cc(CCC(=O)CC(Nc3ccc(S(=O)(=O)Nc4cc(C)on4)cc3)c3cccc(F)c3)ccc2c1 (configuration not stated)
// compare: P vs Q , metric inhibition, want the smaller Reply briefly: the label of your chosen item. P

----------
- system.under.test: Peroxisome proliferator-activated receptor (Homo sapiens) (UniProt P37231+Q07869+Q03181)
- assay.text: Activation of PPAR in human HepG2 cells at 10 ug/ml after 24 hrs by luciferase reporter gene assay relative to rosiglitazone
- Assay type: cell-based
quantity.kind: Activity (%)

Here's what some known entries look like.
COc1ccc(C(CC(=O)CCc2ccc3cc(OC)ccc3c2)Nc2ccc(S(=O)(=O)Nc3cc(C)on3)cc2)cc1 (centres undefined) | 48.4
COc1ccc2cc(CCC(=O)CC(Nc3cc(C)on3)c3ccc(Cl)cc3)ccc2c1 (centres undefined) | 6.32
COc1ccc2cc(CCC(=O)CC(Nc3ccc(S(N)(=O)=O)cc3)c3ccc(Br)cc3)ccc2c1 (centres undefined) | 67.3
COc1ccc2cc(CCC(=O)CC(Nc3ccc(S(=O)(=O)Nc4cc(C)on4)cc3)c3cccc([N+](=O)[O-])c3)ccc2c1 (centres undefined) | 81.8
COc1ccc2cc(CCC(=O)CC(Nc3ccc(S(N)(=O)=O)cc3)c3ccccc3)ccc2c1 (centres undefined) | 61
COc1ccc2cc(CCC(=O)CC(Nc3ccc(S(=O)(=O)Nc4cc(C)on4)cc3)c3ccc(O)cc3)ccc2c1 (centres undefined) | 13.8
COc1ccc2cc(CCC(=O)CC(Nc3cc(C)on3)c3ccccc3)ccc2c1 (centres undefined) | 5.83
CCCCOc1ccc(C(CC(=O)CCc2ccc3cc(OC)ccc3c2)Nc2ccc(S(N)(=O)=O)cc2)cc1 (centres undefined) | 18

P = COc1ccc2cc(CCC(=O)CC(Nc3ccc(S(=O)(=O)Nc4cc(C)on4)cc3)c3ccc(Cl)cc3Cl)ccc2c1 (centres undefined)
Q = COc1ccc2cc(CCC(=O)CC(Nc3cc(C)on3)c3ccc(O)cc3)ccc2c1 (centres undefined)
Returns: the label, P or Q , whose recorded Activity is the lower number. Returns: label corresponding to the selected item. Q
(Q: 5.3%, P: 64.5%)

P = COc1ccc(C(CC(=O)CCc2ccc3cc(OC)ccc3c2)Nc2cc(C)on2)cc1 (centres undefined)
Q = COc1ccc2cc(CCC(=O)CC(Nc3ccc(S(N)(=O)=O)cc3)c3ccco3)ccc2c1 (centres undefined)
Which entry has a larger number for Activity, P or Q ? Pick one and reply with its label. Q

A = COc1ccc2cc(CCC(=O)CC(Nc3ccc(S(=O)(=O)Nc4cc(C)on4)cc3)c3cccc(F)c3)ccc2c1 (centres undefined)
B = CCCCOc1ccc(C(CC(=O)CCc2ccc3cc(OC)ccc3c2)Nc2cc(C)on2)cc1 (centres undefined)
Among A and B , which shows a numerically higher Activity result? Please identify the chosen entry by its label. A
(A: 36.7%, B: 6.33%)
